Tested on: DU-145
Experiment: NCI tumour cell line growth inhibition, 48 h
The source made the active and inactive calls. Rule as the data show it: active = GI50 up to about 1.1 µM and inactive = higher.
// one of y = active, n = inactive, no free text

O=C1Nc2c(Cl)cc(Cl)cc2/C1=N/Nc1ccccc1[N+](=O)[O-]    n

Kindly consider the entry below.
Fill in: this test's call for CCOC(=O)C1(C(=O)OCC)[C@H](c2ccccc2)C2=NO[C@@H]3CCC[C@H]1[C@H]23 is ___
n

====

Tested on: RXF 393
Experiment: NCI tumour cell line growth inhibition, 48 h
Calls of active or inactive are those of the source. No stated cut-off is given here; in the data, active = GI50 up to about 1.1 µM and inactive = higher.
Measured property: GI50

GET /value?item= Cc1cc(O)nc2c3c(ccc12)OC(C)(C)C=C3 &field=GI50 returns 5.25 µM (inactive)

In plain terms, CCOP(=O)(CCCC(O)CNc1nc(N)nc(Cl)c1/N=N/c1ccc(Cl)cc1)OCC (stereo not given) has a documented GI50 of 5.24 µM (inactive)

Measured GI50, COC1/C=C/C(C)C(C(C)C(OC)C(C)CCC(=O)C(C)C(C/C=C/N(C)C=O)OC)OC(=O)C=CC2OC2(C)CC(OC)C(OC)C2=CC(=O)O[C@@H](C(C)C(OC)CC(OC)/C=C/C(C)C(O)C1)[C@H]2O (stereo not given in full) : 0.0139 µM (active)

The molecule listed as C=C[C@H]1CN2CCc3c([nH]c4c([C@@H]5CCCN5C)c(O)ccc34)[C@@H]2C[C@@H]1C[C@H]1c2[nH]c3ccccc3c2CCN1C has a reported GI50 of 0.215 µM (active)

The reported value for COC1=C(NC(C)=O)C(=O)c2nc3n(c2C1=O)CCC3 in terms of GI50 is 17.7 µM (inactive)

Short answer for O=C(O)C1C(Br)(c2ccccc2)C1(Br)c1ccccc1 (stereo not given) : GI50 was 19.5 µM (inactive)

Entry NC(=O)CCC(Nc1c2ccccc2nc2ccccc12)C(=O)O (stereo not given) , GI50 reported as > 100 µM (inactive)

Entry under test: C#CCn1c(=O)c(I)cn(/C(=C/C(=O)OCC)C(=O)OCC)c1=O . Its GI50 was 3.61 µM (inactive)

Sample CN(C)CCCCN1c2ccccc2Sc2ccc(N=[N+]=[N-])cc21 ; GI50 observed: 4.06 µM (inactive)

Lab book: GI50 of C#CCCCC(=C)C[C@@H]1OC(=O)[C@H](C)[C@@H]1O noted as > 100 µM (inactive)

GI50 in this record for Cc1cccc2c(N)c3cccc(C(=O)NCC[N+](C)(C)Cc4ccccc4[N+](=O)[O-])c3nc12 : 9.64 µM (inactive)

According to the records, this molecule CCC(C(C)N1CC(=O)NC(=O)C1)N1CC(=O)NC(=O)C1 (stereo not given) displays GI50 of > 100 µM (inactive)

// GI50 value for COc1cc(C)c2c(=O)c3ccccc3n(C)c2c1 : 14.2 µM (inactive)

GI50 reported for this molecule CCCCN(CCCC)C(=O)C(=O)C(C#N)c1ccc(C)cc1 (stereo not given) : > 100 µM (inactive)

Note to self: GI50 recorded for CC[C@@]1(O)C(=O)OCc2c1cc1n(c2=O)Cc2c-1nc1ccccc1c2/C=N\NC(=O)C(N)=O was 3.04 µM (inactive)

In plain terms, CC(=O)NC(C)(C)C1CC=C(C)CC1 (stereo not given) has a documented GI50 of > 100 µM (inactive)

Value of GI50 reported for the molecule Cn1c(=O)c2c(nc(N/N=C3/SCC(=O)N3Cc3ccccc3)n2C)n(C)c1=O is > 100 µM (inactive)
